Where do the numbers come from? From PubChem BioAssay (NCI).

test: NCI Yeast Anticancer Drug Screen. Data for the mec2-1 strain (AID 157); conditions: S. cerevisiae mec2-1 strain, at 50.0 µM (retest, dose inferred, filed as 5.0)
About 79,000 compounds went through this panel and 15% of them were active in at least one assay; those are over-represented in the sample as a whole. Active and inactive are the calls of the source. Rule as the data show it: active = growth inhibition above about 70%; inactive = the rest.
Possible outcomes: 1 (yes) = active, 0 (no) = inactive

compound: C1CC[N-]CC1.CC(=N\O)/C(C)=N/O.CC(=N\O)/C(C)=N/O.OC1[CH-]CCCC1.[Co+2]
category: 0 (no)
--
compound: N#C[S-].[Nd+3].c1cnc2c(c1)ccc1cccnc12.c1cnc2c(c1)ccc1cccnc12.c1cnc2c(c1)ccc1cccnc12
category: 1 (yes)
--
compound: CC(C)C1(NC(=O)C2C=C3c4cccc5[nH]cc(c45)CC3N(C)C2)OC2(O)C3CCCN3C(=O)C(Cc3ccccc3)N2C1=O (stereo not drawn)
category: 1 (yes)
--
compound: CC1=C[C@H]2O[C@@H]3C[C@H]4OC(=O)/C=C\C=C\C(C(C)O)OCC(O)C(C)CC(=O)OC[C@@]2(C[C@@H]1O)[C@]4(C)[C@@]31CO1 (stereo partly drawn)
category: 1 (yes)
--
compound: CCC[CH2][Sn]1([CH2]CCC)[O]Cc2nc(C)ccc2[O]1
category: 1 (yes)
--
compound: CC1=C[n+]2cc(C)ccc2Sc2c1ccc1ccccc21
category: 0 (no)
--
compound: CCCCCCCCCCCC(=O)[O][Hg][c]1ccccc1
category: 1 (yes)
--
compound: COc1cc(C2c3cc4c(cc3[C@@H](Nc3ccc(N)cc3)C3COC(=O)[C@H]23)OCO4)cc(OC)c1O (stereo partly drawn)
category: 1 (yes)

---

experiment: NCI Yeast Anticancer Drug Screen. Data for the rad14 strain (AID 159);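 also: 0% = growth of vehicle-treated control cultures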; settings: S. cerevisiae rad14 strain growth inhibition; at 100.0 µM; hits give high values
About 79,000 compounds went through this panel and 15% of them were active in at least one assay; those are over-represented in the sample as a whole.
value_type: growth inhibition (%)

compound: C=CC[N+]12CN3CN(CN(C3)C1)C2
unit: %
observed_measurement: 31
//
compound: CC1CCC2(NC1)OC1CC3C4CCC5CC(OC6OC(CO)C(OC7OC(CO)C(O)C(OC8OCC(O)C(O)C8O)C7OC7OC(CO)C(O)C(O)C7O)C(O)C6O)CCC5(C)C4CCC3(C)C1C2C (stereo not given)
unit: %
observed_measurement: 77
//
compound: CCC(=O)OC1CCn2c1nc1c2C(=O)C(C)=C(N2CC2)C1=O (stereo not given)
unit: %
observed_measurement: 79
//
compound: c1ccc2cc3n[se]nc3cc2c1
unit: %
observed_measurement: 98
//
compound: Oc1c(Br)cc(Br)cc1Br
unit: %
observed_measurement: 77
//
compound: C[CH2][Sn]1([CH2]C)[O]C2C(O)OC(CO)C(O)C2[O]1 (stereo not given)
unit: %
observed_measurement: 15
//
compound: O=C(COc1ccc(Cl)cc1Cl)NO
unit: %
observed_measurement: 98
//
compound: COC(=O)C1=C(C(=O)OC)C2OC1c1cc3ccccc3cc12
unit: %
observed_measurement: 99
//
compound: O=[N+]([O-])O.[NH-]C1CCCCC1[NH-].[NH-]C1CCCCC1[NH-].[NH-]C1CCCCC1[NH-].[OH-].[OH-].[OH-].[Pt+4].[Pt+4].[Pt+4] (stereo not given)
unit: %
observed_measurement: -10
//
compound: CCN(CCCl)CCCCNc1c2ccccc2nc2ccc(OC)cc12
unit: %
observed_measurement: 98
